Measured Remaining Percentage (%) 24 h by item
Assay: Test 4: stability of compounds in human liver microsomes
Format: in vitro ADME
Settings: 24 h; 0.5 mg/mL liver microsomal protein, 1 mM NADPH, 37° C., N=1
Report only the number, with the unit % understood.

Example entries and their recorded answers appear below.
1) [2H]C([2H])([2H])N(CCN(C)C)c1cc(OC)c(Nc2nccc(-c3cn(C)c4ccccc34)n2)cc1NC(=O)C=C: 75
2) [2H]C([2H])([2H])N(CCN(C)c1cc(OC)c(Nc2nccc(-c3cn(C)c4ccccc34)n2)cc1NC(=O)C=C)C([2H])([2H])[2H]: 82
3) [2H]C([2H])([2H])N(C)CCN(C)c1cc(OC)c(Nc2nccc(-c3cn(C)c4ccccc34)n2)cc1NC(=O)C=C: 77
4) [2H]C([2H])([2H])Oc1cc(N(C)CCN(C)C)c(NC(=O)C=C)cc1Nc1nccc(-c2cn(C)c3ccccc23)n1: 72
5) [2H]C([2H])([2H])N(CCN(C)c1cc(OC)c(Nc2nccc(-c3cn(C([2H])([2H])[2H])c4ccccc34)n2)cc1NC(=O)C=C)C([2H])([2H])[2H]: 76

query: Indicate its recorded Remaining Percentage (%) 24 h; the compound in question is C=CC(=O)Nc1cc(Nc2nccc(-c3cn(C)c4ccccc34)n2)c(OC)cc1N(C)CCN(C)C.CS(=O)(=O)O [AZD9291, reference compound]
result: 48

query: Indicate its recorded Remaining Percentage (%) 24 h; the compound in question is [2H]C([2H])([2H])n1cc(-c2ccnc(Nc3cc(NC(=O)C=C)c(N(C)CCN(C)C)cc3OC)n2)c2ccccc21
result: 73
